- System: Wolbachia pipientis
- assay remarks: Anti-Wolbachia Cell-Based Screen
- Format: functional
- Set-up: scale not given: in the data most compounds retested in dose-response had high values
- measurement context: 5 µM
Out of some 48,000 compounds screened, about 13,000 (27%) showed an effect of 50% or more. Some of the results follow.
We use 10% as the dividing line for Percent Effect: on or above the line is MET, below is NOT MET.

Answered cases to consult:
1) Cn1cc(CCNC(=O)NC2CCS(=O)(=O)C2)cn1 (configuration not stated): NOT MET
2) O=C(c1n[nH]c2c1CCN(Cc1nccs1)C2)N1CCOCC1: MET
3) Cc1ccc(CN2CCS(=O)(=O)C(C)(C)C2)cc1C: MET
4) O=S(=O)(N1CCCCC1)N1CCC(Oc2cnccn2)CC1: MET
5) Cc1ccc(CN2CCN(CC3CC3)[C@@H]3CS(=O)(=O)C[C@@H]32)cc1C: NOT MET

API: above_or_equal(metric=Percent Effect, cutoff=10%) for item Cc1ccc(S(=O)(=O)N2CCC(Oc3ccccn3)CC2)c(C)c1
NOT MET

API: above_or_equal(metric=Percent Effect, cutoff=10%) for item CCc1c(C(=O)NC2CCS(=O)(=O)C2)cnn1-c1ccc(F)cc1 (configuration not stated)
NOT MET

----------
// Percent Effect lookup, one value per entry
- Tested on: Wolbachia pipientis
- assay remarks: Anti-Wolbachia Cell-Based Screen
- Format: functional
- Set-up: scale not given: in the data most compounds retested in dose-response had high values
- measurement context: 5 µM
The whole screen tested about 48,000 compounds, of which about 13,000 (27%) showed an effect of 50% or more. The list shows a part of the results.
Give the number; % is assumed, so skip it.

The examples below pair each entry with its known result.
1. COC(=O)c1ccccc1NS(=O)(=O)c1c(C)nn(C)c1C: 21.66
2. CSCCCN1CCn2nc(CNC(C)=O)cc2C1: -21.5
3. CN(Cc1ccccc1)c1ccc(C(F)(F)F)cn1: 3.007
4. Cc1ccccc1C(CC(=O)NCC(N)=O)c1ccccc1 (configuration not stated): -4.865
5. C=C(C)COCCNC(=O)Nc1cccc(Cn2nc(C)nc2C)c1: -4.389
6. CN(Cc1cnccn1)C(=O)Nc1cc(F)cc(N2CCCC2)c1: 16.17

Looking for the measured Percent Effect of COCC(=O)N(C)Cc1nc(N2CCCC2)ncc1-c1ccncc1.Cl , can you help?
87.58

Looking for the measured Percent Effect of CC(Oc1ccc(F)cc1)C(=O)N(CC(N)=O)C1CCCC1 (configuration not stated) , can you help?
-8.353

Looking for the measured Percent Effect of CCCC(=O)N(C)Cc1nc(N2CCCC2)ncc1-c1ccncc1.Cl , can you help?
137.6

Looking for the measured Percent Effect of CCOCC(=O)N1Cc2cnc(-c3ccccc3)nc2C1 , can you help?
12.32

Looking for the measured Percent Effect of Cc1cc(=O)c(C(=O)N(C)Cc2ccc(Cl)c(F)c2)c[nH]1 , can you help?
0.1621

Looking for the measured Percent Effect of CC[C@H](C)[C@H](N)C(=O)N1CC(=O)c2sc(NCc3ccccc3)nc2C1 , can you help?
97.62

----------
- Tested on: Wolbachia pipientis
- assay remarks: Anti-Wolbachia Cell-Based Screen
- Format: functional
- Parameters: scale not given: in the data most compounds retested in dose-response had high values
- measurement context: 5 µM
The whole screen tested about 48,000 compounds, of which about 13,000 (27%) showed an effect of 50% or more. Some of the results follow.
// Percent Effect lookup, one value per entry
Give your result as the value with the unit written after it.

The examples below pair each entry with its known result.
1) Cn1cc(C(=O)CC2CCCN2C(=O)c2coc3ccccc23)cn1 (stereo unspecified): 99.8%
2) CC1CN(CC2CCCC2)CCN1c1ccc2nncn2n1 (stereo unspecified): -0.9162%
3) Cc1cc(NC(=O)CCN2CCn3c(C)nnc3C2)no1: -12.27%
4) CN1Cc2ccccc2CC2(CCN(c3ncccn3)CC2)C1=O: -6.777%

Looking for the measured Percent Effect of N#Cc1ccc(N2CCN(c3ccc4nncn4n3)CC2)nc1 , can you help?
-1.975%

Looking for the measured Percent Effect of CN1CC(=O)N(c2ccccc2)CC12CCN(Cc1nccn1C)C2.O=C(O)C(F)(F)F.O=C(O)C(F)(F)F (stereo unspecified) , can you help?
-13.15%

Looking for the measured Percent Effect of COc1ccc(C)cc1S(=O)(=O)NCCC(O)c1ccccc1 (stereo unspecified) , can you help?
-7.148%

Looking for the measured Percent Effect of Cc1cc(C(O)CCNC(=O)COc2ccccc2C)c(C)o1 (stereo unspecified) , can you help?
9.318%

Looking for the measured Percent Effect of NC(=O)CCOc1ccc(NC(=O)c2ccccc2OC(F)F)cc1 , can you help?
5.121%

Looking for the measured Percent Effect of CN1Cc2ccccc2CC2(CCN(c3ncc(F)cn3)CC2)C1=O , can you help?
-14.24%

Looking for the measured Percent Effect of CC1CN(CC2CCCCC2)CCN1c1ccc2nncn2n1 (stereo unspecified) , can you help?
-9.658%

Looking for the measured Percent Effect of CC(O)c1cn(C2CCN(C(=O)C3(C)CCCCC3)CC2)nn1 (stereo unspecified) , can you help?
29.6%

Looking for the measured Percent Effect of Cn1ccnc1CN1CCC2(CC1)Cc1ccccc1CNC2=O.O=C(O)C(F)(F)F , can you help?
103.5%
